// data source = ChEMBL document CHEMBL1201862

- Tested on: ACHN
- protocol_details: NCI tumour cell line growth inhibition, 48 h
Activity calls are given as the source filed them. No stated cut-off is given here; in the data, active = GI50 up to about 1.1 µM and inactive = higher.
endpoint_label: GI50

The examples below pair each entry with its known result.
CCCCCCCCCCCCCC(=O)OCC1OC(=O)C(O)C1O (centres undefined)	> 100 µM (inactive)
C[C@]12CC[C@@H]3c4ccc(O)cc4CC[C@H]3[C@@H]1C/C(=C\c1ccncc1)[C@@H]2O	11.2 µM (inactive)
O=C(O)c1ccc(NC(c2ccccc2)c2ccc3cccnc3c2O)cc1 (centres undefined)	8.41 µM (inactive)

Switching to the query record.
Would you kindly share the measured GI50 for Cc1cc(C)c(S(=O)(=O)N(CCCN)OCCON(CCCN)S(=O)(=O)c2c(C)cc(C)cc2C)c(C)c1 ? 23.7 µM (inactive)

* * *

- Tested on: UACC-62
- protocol_details: NCI tumour cell line growth inhibition, 48 h
Calls of active or inactive are those of the source. Rule as the data show it: active = GI50 up to about 1.1 µM and inactive = higher.
Mark one answer only. Choices: true (active), false (inactive)

Please review the entries below; each comes with its answer.
COc1ccc2cc(CNCCCCCCCCNCc3ccc4cc(OC)ccc4c3)ccc2c1	false
CCCC[C@H]1[C@@H](OCOc2ccccc2)COC(=O)N1[C@H](C)c1ccccc1	false
NC(=O)/N=C1\NCCC(=O)N1CCc1c[nH]c2ccccc12	false
CCOC(=O)/C(C#N)=N\Nc1ccc(-n2c(C)nc3ccccc3c2=O)cc1	false

Which outcome was assigned to CO/C(N)=C(C#N)/N=C/c1ccco1 in this test? false

# repeat for Brc1ccc(-c2[nH]c3ccccc3c2/C=N\Nc2ccc(-c3nc4ccccc4[nH]3)cc2)cc1 true

Item: CC1(C)NC2C(=O)c3c([nH]c4ccccc34)[C@]3(C)CCC1CC23 (stereo not given in full) false

Same again, this time with O=C1c2ccccc2C(=O)[C@@]23O[C@@]12C1(Oc2cccc4cccc(c24)O1)[C@@H]1O[C@@H]1[C@@H]3O false

Now this one: CCOC(=O)C(O)(NC(=O)c1ccc(F)cc1)C(F)(F)F (stereo not given) false

Please give the result for CCOC(=O)NC(Nc1ccc(F)cc1F)(C(F)(F)F)C(F)(F)F too. false

Quick one: O=C(O)C1CCCCN1C(=O)c1ccccc1 (stereo not given) false

And what about the compound CCN(CC)CCOc1ccc(N2C(=O)c3cc(OC)c(OC)cc3C2=O)cc1 ? false

* * *

- System: NCI-H23
- protocol_details: NCI tumour cell line growth inhibition, 48 h
Active and inactive are the calls of the source. Rule as the data show it: active = GI50 up to about 1.1 µM and inactive = higher.
The entries below are paired with their reported GI50.

Cc1cccc(N2C(=O)C3c4[nH]c5ccc(C)cc5c4C4CCC(C(C)(C)C)CC4C3C2=O)c1 (stereo not given)	26.1 µM (inactive)
C[N+]1=c2c3cccc4cccc(c(=O)n2CC1)c43	17.6 µM (inactive)
O=c1ccc(=O)n(-c2ccccc2)[nH]1	> 100 µM (inactive)

// GI50 lookup, key: CC(=O)Nc1c(C)cc2c(nc3n2CCC3O)c1[N+](=O)[O-] (stereo not given) > 100 µM (inactive)

Same question, COc1cc(OC)c(OC)cc1/C=C/c1cnnc2ccccc12 this time > 10 µM (inactive)

* * *

- Test system: SNB-19
- protocol_details: NCI tumour cell line growth inhibition, 48 h
Activity calls are given as the source filed them. No stated cut-off is given here; in the data, active = GI50 up to about 1.1 µM and inactive = higher.
Here, each record is paired with measured GI50 data.

Below: 5 molecules and their reported GI50.
CCOC(=O)c1c(-c2ccc(Cl)cc2)c(C#N)c(=S)n(C2OC(COC(C)=O)C(OC(C)=O)C(OC(C)=O)C2OC(C)=O)c1-c1ccccc1 (configuration not stated)	> 100 µM (inactive)
Cc1ccc(Nc2nc3c(=O)n(C)c(=O)n(C)c3nc2Nc2ccc(C)cc2)cc1	31.3 µM (inactive)
Nc1ncc2c(n1)-c1ccccc1OC2	> 100 µM (inactive)
COCN1C(=O)[C@@H]2C[C@@H](O)CN2C(=O)c2ccccc21	> 100 µM (inactive)
CC(C)N(C(=O)C1(C)CC1)C(C)C	> 100 µM (inactive)

Reported GI50, molecule Cc1cc(C)c(S(=O)(=O)N(CCCN)OCCON(CCCN)S(=O)(=O)c2c(C)cc(C)cc2C)c(C)c1 : ____ 2.08 µM (inactive)

Record: Cc1c(C)c(C)c(Cn2[nH]c(=O)n(C)c2=O)c(C)c1C > 100 µM (inactive)

* * *

- Tested on: DMS-114
- protocol_details: NCI tumour cell line growth inhibition, 48 h
The source made the active and inactive calls. Rule as the data show it: active = GI50 up to about 1.1 µM and inactive = higher.
endpoint_label: GI50

Check out these entries, answers already filled in.
CC(=O)OCC1OC(N2C(=O)/C(=N\NC(N)=S)c3ccc([N+](=O)[O-])cc32)C(OC(C)=O)C1OC(C)=O (centres undefined)	23.1 µM (inactive)
Nc1nc(-c2ccccc2)cc(-c2cc(Cl)ccc2O)n1	55.6 µM (inactive)
COC(=O)c1cc2c3ccccc3n(C(C)=O)c2cn1	> 100 µM (inactive)

Endpoint output: GI50 of CCOc1ccc(/N=N/c2c(-c3ccccc3)nn(C(=O)CC(=O)Nc3cccc(C)c3)c2-c2ccccc2)cc1 . Value? 30.4 µM (inactive)

Try this molecule too: Cn1c(=O)c(NC(=O)C(Cl)(Cl)Cl)nc2ccccc21 > 100 µM (inactive)

And the next one, Nc1nc2ncn(CC(O)COC(=O)c3ccccc3)c2c(=O)[nH]1 (centres undefined) ? > 100 µM (inactive)

Item: O=C(COc1ccc(Cl)cc1)N1N=C(c2ccc(Cl)cc2)CC1(O)c1ccccc1 (centres undefined) 18.4 µM (inactive)

Moving on to CSc1n/c(=N\c2ccccc2)sn1-c1ccccc1 3.15 µM (inactive)

Also CCOC(=O)CN(Cc1ccccc1)Cc1c(C(=O)c2ccccc2)c2ccccc2n1C(=O)c1ccccc1 , if possible. > 100 µM (inactive)

* * *

- System: SK-MEL-28
- protocol_details: NCI tumour cell line growth inhibition, 48 h
Activity calls are given as the source filed them. Rule as the data show it: active = GI50 up to about 1.1 µM and inactive = higher.
endpoint_label: GI50

O=c1c2c3c(sc2nc(S)n1-c1ccccc1)CCCc1ccc([N+](=O)[O-])cc1-3	> 100 µM (inactive)
CN1CCCN(C)C1c1cc([N+](=O)[O-])ccc1O	27.9 µM (inactive)

Would you kindly look at the next entry?
Record request: GI50 value, item Cc1ccc2c(c1)c1ccc3c(c1n2C)C(=O)C=CC3=O 2.18 µM (inactive)

* * *

- System: OVCAR-5
- protocol_details: NCI tumour cell line growth inhibition, 48 h
Active and inactive are the calls of the source. Rule as the data show it: active = GI50 up to about 1.1 µM and inactive = higher.
Your reply should match one of these outcome classes. active, inactive

Example entries and their recorded answers appear below.
C=CCCC1CCCCC/C1=N\N(C)C (configuration not stated)	inactive
N#CC(N)(C(=O)C(=O)NCCCNC(=O)C(=O)C(N)(C#N)c1ccc(Cl)cc1)c1ccc(Cl)cc1 (configuration not stated)	inactive

What did the test return for C[C@@]1(O)C2C3CC4C5C3C1[C@](O)(C42)[C@H]5Br (some centres not stated) ? inactive

* * *

- System: EKVX
- protocol_details: NCI tumour cell line growth inhibition, 48 h
Active and inactive are the calls of the source. Rule as the data show it: active = GI50 up to about 1.1 µM and inactive = higher. Peptide text beside a SMILES is read from it. * marks the point of attachment. Boc = CC(C)(C)OC(=O)*
endpoint_label: GI50

Below, 6 compounds whose answers are already recorded.
CCOC(=O)CCc1c(C)c2c(OC(C)=O)cc(OC(C)=O)cc2oc1=O	58.3 µM (inactive)
CCOP(=O)(OCC)C(C)(CC)NC(=O)C(C(F)(F)F)C(F)(F)F (stereo unspecified)	> 100 µM (inactive)
C/N=C1\S/C(=N\c2ccc(N(C)C)cc2)N1C	25 µM (inactive)
COC(=O)CC(=O)NCC1=CCC(=O)CC1	> 100 µM (inactive)
Cc1cccc(O)c1-c1nnc(CCCCCCCCc2nnc(-c3c(C)cccc3O)n2N)n1N	> 67.3 µM (inactive)
CN(C)CCNC(=O)c1cccc2c1C(=O)c1ccccc1C2=O	63.8 µM (inactive)

What measured GI50 goes with CO/C(N)=C(C#N)/N=C/c1cccs1 ? 42.4 µM (inactive)

Would you mind doing CCCn1c2c(c3ccccc3c1=O)C(=O)c1ccccc1-2 as well? > 76.7 µM (inactive)

Try CCOCC(NC(=O)C(CC(C)C)NC(=O)OC(C)(C)C)C(N)=O (stereo not drawn) (Boc-Leu-Ser(Et)-NH2; configuration not given here) next. > 100 µM (inactive)

Record: CC(=O)NNc1nc(-c2ccc([N+](=O)[O-])cc2)c(C#N)c(=O)n1C 38 µM (inactive)

Also CCOC(=O)C(NC(=O)OCc1ccccc1)C(=O)O (stereo unspecified) , if possible. > 100 µM (inactive)

Same read-out for COc1ccc2c(c1)c(=O)c1c(NCCCN(C)C)ccc3ncn2c31 ? 13.8 µM (inactive)

What do we get for C=C1CC2CC(=O)C(O)C(C1)C2 (stereo unspecified) ? > 100 µM (inactive)

And then Clc1ccc(OCc2nnc3sc(-c4ccc(-c5ccc(Cl)cc5Cl)o4)nn23)cc1 , what is it? > 100 µM (inactive)
